Numbers sourced from patent US20200079876A1.

Give kon for every item shown.
Molecular target: T1, purified human activated C1s protein, two-chain form (Homo sapiens, UniProt P09871 16-688)
T1 construct: Purified protein bought from EMD Millipore; Biotin-labeled in the clone screen; also called active C1s; native C1s protein
T1 sequence: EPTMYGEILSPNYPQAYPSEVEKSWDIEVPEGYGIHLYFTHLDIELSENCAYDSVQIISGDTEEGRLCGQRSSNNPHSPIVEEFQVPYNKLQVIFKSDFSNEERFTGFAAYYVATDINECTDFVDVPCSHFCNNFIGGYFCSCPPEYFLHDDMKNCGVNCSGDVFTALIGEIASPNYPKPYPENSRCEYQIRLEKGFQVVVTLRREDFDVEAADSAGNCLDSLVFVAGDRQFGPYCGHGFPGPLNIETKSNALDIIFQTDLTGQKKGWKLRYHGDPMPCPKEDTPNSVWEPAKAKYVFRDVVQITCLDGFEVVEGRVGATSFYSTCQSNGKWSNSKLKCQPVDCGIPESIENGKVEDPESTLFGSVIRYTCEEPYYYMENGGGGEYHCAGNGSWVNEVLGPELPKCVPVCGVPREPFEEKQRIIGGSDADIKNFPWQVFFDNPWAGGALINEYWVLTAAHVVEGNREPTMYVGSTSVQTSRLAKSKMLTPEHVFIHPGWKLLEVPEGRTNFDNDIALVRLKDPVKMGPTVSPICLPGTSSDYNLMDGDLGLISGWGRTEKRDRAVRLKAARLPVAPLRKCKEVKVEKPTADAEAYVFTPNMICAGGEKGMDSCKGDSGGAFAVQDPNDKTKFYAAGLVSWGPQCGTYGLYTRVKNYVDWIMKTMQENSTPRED
Assay: bio-layer interferometry (BLI), kinetic analysis
Answers are plain numbers, in M⁻¹ s⁻¹.

Recorded results for 2 binders are shown here.
| Binder | kon (M⁻¹ s⁻¹) |
| --- | --- |
| antibody IPN-M13 (antibody, V domains shown, Mouse monoclonal antibody (NZBW hybridoma); Same VL and VH as IPN-M1 and IPN-M3) VH: EVQLQQSGAELVRPGASVKLSCTASGFNIKDDYIHWVKQRPEQGLEWIGRIDPADDHTKYAPKFQDKATMTADTSSNTACLQLNSLTSEDTAVYYCAIYGSGWAWFPYWGQGTLVSVSA VL: DIVLTQSTDYLAVSLGQRATISCKASQSVDYDGDSYMNWYQQKPGQPPKLLIYAASNLESGIPARFSGSGSGTDFTLNIHPVEEEDAATYYCQQSNEDPWTFGGGTKLEIK | 851000 |
| antibody IPN-M3 (antibody, V domains shown, Mouse monoclonal antibody (NZBW hybridoma); Same VL and VH as IPN-M1 and IPN-M13) VH: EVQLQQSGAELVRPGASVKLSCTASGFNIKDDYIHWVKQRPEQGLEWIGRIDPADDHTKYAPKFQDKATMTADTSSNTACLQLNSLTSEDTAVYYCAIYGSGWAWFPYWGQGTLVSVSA VL: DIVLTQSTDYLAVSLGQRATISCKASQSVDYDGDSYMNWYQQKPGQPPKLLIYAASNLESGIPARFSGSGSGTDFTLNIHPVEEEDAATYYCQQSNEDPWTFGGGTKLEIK | 845000 |

Exam item: Request the reported kon associated with antibody IPN-M14 (antibody, V domains shown, Mouse monoclonal antibody (NZBW hybridoma)) VH: EVKLQQSGAELVRPGASVKLSCTASGFNIKDDYIHWVKQRPEQGLEWIGRIDPADGHTKYAPKFQVKATITADTSSNTAYLQLSSLTSEDTAVYYCARYGYGREVFDYWGQGTTLTVSS VL: DIVLTQFPTFLAVFLGQRAPISCKASQSVDYDGDSYMNWFQQKTGQPPKILIYDASNLEFGIPTRFSGSGFGTDFPLNIHPVEEEDAAIYFCQQSNEDPWTFGGGPKLEIK
Marked response: 1.12e+06
